pKd reference
target: WDR5 protein (Homo sapiens (Human), UniProt P61964); experiment: Surface Plasmon Resonance (SPR) assay; type: binding; conditions: SPR, Table 2; read-out: WDR5 binding affinity SPR (KD)
pKd: −log10 of the molar value.
measured-attribute: pKd

INSERT INTO assay_data (molecule, measured_attribute, bound_type, result_value) VALUES
  ('CN1CCN(c2ccc(-c3cc(CN4CCOCC4)ccc3F)cc2NC(=O)c2cn(C)c(=O)cc2C(F)(F)F)CC1 [Example 13]', 'pKd', '=', 7.82),
  ('CN1CCN(c2ccc(-c3cc(CN4CCOCC4)ccc3F)cc2NC(=O)c2c[nH]c(=O)cc2C(F)(F)F)CC1COC(=O)C(C)(C)C (stereo not drawn) [Example 64]', 'pKd', '=', 6.99),
  ('C[C@@H]1CN(c2ccc(-c3ccc(C(=O)NC(C)(C)CC(C)(C)C)c(F)c3F)cc2NC(=O)c2c[nH]c(=O)cc2C(F)(F)F)C[C@H](C)N1C [Example 122]', 'pKd', '=', 8.10),
  ('CN1CCN(c2ccc(-c3ccc(N4CCCC4)nc3F)cc2NC(=O)c2c[nH]c(=O)cc2C(F)(F)F)CC1 [Example 22]', 'pKd', '=', 7.77),
  ('CN1CCN(c2ccc(-c3cc(CNC4CC4)ccc3F)cc2NC(=O)c2c[nH]c(=O)cc2C(F)(F)F)CC1 [Example 17]', 'pKd', '=', 7.85),
  ('C[C@@H]1CN(c2ccc(-c3c(F)ccc(C#N)c3F)cc2NC(=O)c2c[nH]c(=O)cc2C(F)(F)F)C[C@H](C)N1C [Example 78]', 'pKd', '=', 7.41),
  ('CN1CC2CN(c3ccc(-c4cc(CN5CCOCC5)ccc4F)cc3NC(=O)c3c[nH]c(=O)cc3C(F)(F)F)CC2C1 (stereo not drawn) [Example 100]', 'pKd', '=', 5.23),
  ('CC1CN(c2ccc(-c3cc(CN4CCOCC4)ccc3F)cc2NC(=O)c2c[nH]c(=O)cc2C(F)(F)F)CCN1C (stereo not drawn) [Example 26]', 'pKd', '=', 8.05),
  ('CN1CCN(c2ccc(-c3cc(CN4CC[C@@H](O)C4)ccc3F)cc2NC(=O)c2c[nH]c(=O)cc2C(F)(F)F)CC1 [Example 69]', 'pKd', '=', 8.27),
  ('CN1CCN(c2ccc(-c3cc(CN(C)[C@H]4CCOC4)ccc3F)cc2NC(=O)c2c[nH]c(=O)cc2C(F)(F)F)CC1 [Example 76]', 'pKd', '=', 8.26),
  ('CN1CCN(c2ccc(-c3cc(CN4CCC(F)CC4)ccc3F)cc2NC(=O)c2c[nH]c(=O)cc2C(F)(F)F)CC1 [Example 73]', 'pKd', '=', 8.38),
  ('CN1CCN(c2ccc(-c3cc(CN4CCOCC4)ccc3F)cc2NC(=O)c2cc(O)cc(F)c2F)CC1 [Example 48]', 'pKd', '=', 7.03),
  ('CN1CCN(c2ccc(-c3ccccc3F)cc2NC(=O)c2c[nH]c(=O)cc2C(F)(F)F)CC1 [Example 25]', 'pKd', '=', 6.99),
  ('C[C@@H]1CN(c2ccc(-c3cc(CNC4CCCCC4)ccc3F)cc2NC(=O)c2c[nH]c(=O)cc2C(F)(F)F)C[C@H](C)N1C [Example 45]', 'pKd', '=', 8.70),
  ('CN1CCN(c2ccc(-c3cc(CN4CCOCC4)ccc3F)cc2NC(=O)c2cnc(N)cc2C(F)(F)F)CC1 [Example 109]', 'pKd', '<', 6.70),
  ('Cc1cc(C(=O)Nc2cc(-c3cc(CN4CCOCC4)ccc3F)ccc2N2CCN(C)CC2)ccc1F [Example 36]', 'pKd', '=', 8.40),
  ('CN1CCN(c2ccc(-c3cc(CN4CCOCC4)ccc3F)cc2NC(=O)c2nc3ccccc3[nH]2)CC1 [Example 103]', 'pKd', '<', 6.70),
  ('CCN1CCN(c2ccc(-c3cc(CNC4CCCCC4)ccc3F)cc2NC(=O)c2c[nH]c(=O)cc2C(F)(F)F)CC1 [Example 63]', 'pKd', '<', 6.70),
  ('CC(C)COc1ccc(F)c(-c2ccc(N3CCN(C)CC3)c(NC(=O)c3c[nH]c(=O)cc3C(F)(F)F)c2)c1 [Example 6]', 'pKd', '=', 7.12),
  ('C[C@@H]1CN(c2ccc(-c3cc(C(=O)N4CCOCC4)ccc3F)cc2NC(=O)c2c[nH]c(=O)cc2C(F)(F)F)C[C@H](C)N1C [Example 47]', 'pKd', '=', 8.10),
  ('CN1CCN(c2ccc(-c3cc(CN4CCOCC4)ccc3F)cc2NC(=O)c2ccc(O)cc2C(F)(F)F)CC1 [Example 44]', 'pKd', '=', 7.16),
  ('COc1cc(C(F)(F)F)c(C(=O)Nc2cc(-c3cc(CN4CC[C@@H](S(C)(=O)=O)C4)ccc3F)ccc2N2CCN(C)CC2)cn1 [Example 57]', 'pKd', '<', 6.70),
  ('CN1CCN(c2ccc(-c3cc(CN4C5COCC4C5)ccc3F)cc2NC(=O)c2c[nH]c(=O)cc2C(F)(F)F)CC1 [Example 74]', 'pKd', '=', 8.32),
  ('CN(C)C1CCN(c2ccc(-c3cc(CN4CCOCC4)ccc3F)cc2NC(=O)c2cn(C)c(=O)cc2C(F)(F)F)C1 (stereo not drawn) [Example 101]', 'pKd', '=', 5.64),
  ('CN1CCN(c2ccc(-c3cc(CN4CCOCC4)ccc3Cl)cc2NC(=O)c2c[nH]c(=O)cc2C(F)(F)F)CC1 [Example 86]', 'pKd', '=', 7.46),
  ('COC(=O)c1ccc(F)c(-c2ccc(N3CCN(C)CC3)c(NC(=O)c3c[nH]c(=O)cc3C(F)(F)F)c2)c1 [Example 14]', 'pKd', '=', 7.59),
  ('CN1CCN(c2ccc(-c3cc(CNC4CCCCC4)ccc3F)cc2NC(=O)c2c[nH]c(=O)cc2C(F)(F)F)CC1 [Example 7]', 'pKd', '=', 8.40);

====

target: WDR5 protein (Homo sapiens (Human), UniProt P61964); assay: Surface Plasmon Resonance (SPR) assay; format: binding; conditions: SPR, Table 1; read-out: WDR5 binding affinity (KD)
log10(Kd) reference
measured-attribute: log10(Kd) (log10 of the value in nM)

INSERT INTO results (compound, result_value) VALUES
  ('CN1CCN(c2ccc(-c3cc(CN4CCOCC4)ccc3F)cc2NC(=O)c2ccc(=O)[nH]c2)CC1 [Example 105]', 3.29),
  ('C[C@@H]1CN(c2ccc(-c3cc(C(N)=O)ccc3F)cc2NC(=O)c2c[nH]c(=O)cc2C(F)(F)F)C[C@H](C)N1C [Example 119]', 0.57),
  ('CC(=O)Nc1cc(C)c(C(=O)Nc2cc(-c3cc(CN4CCOCC4)ccc3F)ccc2N2CCN(C)CC2)cn1 [Example 106]', 0.92),
  ('CN1CCN(c2ccc(-c3cc(CNC4CC4)ccc3F)cc2NC(=O)c2c[nH]c(=O)cc2C(F)(F)F)CC1 [Example 17]', 1.15),
  ('CN1CCN(c2ccc(-c3cc(CN4CCOCC4)ccc3F)cc2NC(=O)c2ccc(O)cc2C(F)(F)F)CC1 [Example 44]', 1.84),
  ('CN1CCN(c2ccc(-c3cc(CN4CCOCC4)ccc3F)cc2NC(=O)c2c[nH]c(=O)cc2C(F)(F)F)CC1CO (centres unmarked) [Example 65]', 0.97),
  ('CN1CCN(c2ccc(-c3ccc(OCC4CC4)nc3F)cc2NC(=O)c2c[nH]c(=O)cc2C(F)(F)F)CC1 [Example 16]', 1.00),
  ('CN1CCN(c2ccc(-c3ccc(CNC4CCCC4)cc3F)cc2NC(=O)c2c[nH]c(=O)cc2C(F)(F)F)CC1 [Example 33]', 1.36),
  ('CN1CCN(c2ccc(-c3cc(C(=O)NC4CCCCC4)ccc3F)cc2NC(=O)c2c[nH]c(=O)cc2C(F)(F)F)CC1 [Example 32]', 0.78),
  ('CN1CCN(c2ccc(-c3cc(CN4CC[C@@H](N(C)C)C4)ccc3F)cc2NC(=O)c2c[nH]c(=O)cc2C(F)(F)F)CC1 [Example 71]', 0.68);

====

biological target: WDR5 protein (Homo sapiens (Human), UniProt P61964); test: Surface Plasmon Resonance (SPR) assay; type: binding; details: SPR, Table 1; read-out: WDR5 binding affinity (KD)
log10 Kd reference
measured-attribute: log10 Kd (log10 of the value in nM)

INSERT INTO results (compound, result_value) VALUES
  ('C[C@@H]1CN(c2ccc(-c3cc(CNC4CCCCC4)c(F)cc3F)cc2NC(=O)c2c[nH]c(=O)cc2C(F)(F)F)C[C@H](C)N1C [Example 79]', 0.40),
  ('CN1CCN(c2ccc(-c3ccc(N4CCCC4)nc3F)cc2NC(=O)c2c[nH]c(=O)cc2C(F)(F)F)CC1 [Example 22]', 1.23),
  ('Cc1cc(C(=O)Nc2cc(-c3cc(CN4CCOCC4)ccc3F)ccc2N2CCN(C)CC2)ccc1F [Example 36]', 0.60),
  ('CN1CCN(c2ccc(-c3cc(CNC(C)(C)C)ccc3F)cc2NC(=O)c2c[nH]c(=O)cc2C(F)(F)F)CC1 [Example 35]', 0.95),
  ('CN1CCN(c2ccc(-c3ccccc3F)cc2NC(=O)c2c[nH]c(=O)cc2C(F)(F)F)CC1 [Example 25]', 2.01),
  ('CN1CCN(c2ccc(-c3cc(CN4CCOCC4)ccc3F)cc2NC(=O)c2n[nH]c(=O)cc2C(F)(F)F)CC1 [Example 20]', 1.88),
  ('CN1CCN(c2ccc(-c3cc(OC4CCOCC4)ncc3F)cc2NC(=O)c2c[nH]c(=O)cc2C(F)(F)F)CC1 [Example 31]', 0.95),
  ('Cc1cc(=O)[nH]cc1C(=O)Nc1cc(-c2cc(CN3CCOCC3)ccc2F)ccc1N1CCN(C)CC1 [Example 29]', 2.42),
  ('CC1CN(c2ccc(-c3cc(CN4CCOCC4)ccc3F)cc2NC(=O)c2c[nH]c(=O)cc2C(F)(F)F)CCN1C (stereo not drawn) [Example 26]', 0.95),
  ('CN1CCN(c2ccc(-c3cc(CNC4CCC(F)(F)CC4)ccc3F)cc2NC(=O)c2c[nH]c(=O)cc2C(F)(F)F)CC1 [Example 42]', 0.70),
  ('CN1CCN(c2ccc(-c3cc(CN4CCOCC4)ccc3F)cc2NC(=O)c2c[nH]c(=O)cc2C(F)F)CC1 [Example 49]', 0.85),
  ('CN1CCN(c2ccc(-c3cc(CN4CC[C@@H](S(C)(=O)=O)C4)ccc3F)cc2NC(=O)c2c[nH]c(=O)cc2C(F)(F)F)CC1 [Example 75]', 0.77),
  ('CN1CCN(c2ccc(-c3cc(C(N)=O)c(O)cc3F)cc2NC(=O)c2c[nH]c(=O)cc2C(F)(F)F)CC1 [Example 4]', 1.93),
  ('CN1CCN(c2ccc(-c3cc(CN(C)C4COC4)ccc3F)cc2NC(=O)c2c[nH]c(=O)cc2C(F)(F)F)CC1 [Example 43]', 0.85),
  ('C[C@@H]1CN(c2ccc(-c3ccc(C(N)=O)c(F)c3F)cc2NC(=O)c2c[nH]c(=O)cc2C(F)(F)F)C[C@H](C)N1C [Example 123]', 0.56),
  ('C[C@@H]1CN(c2ccc(-c3cc(CN(C)C4COC4)c(F)cc3F)cc2NC(=O)c2c[nH]c(=O)cc2C(F)(F)F)C[C@H](C)N1C [Example 113]', 0.91),
  ('C[C@@H]1CN(c2ccc(-c3c(F)ccc(C#N)c3F)cc2NC(=O)c2c[nH]c(=O)cc2C(F)(F)F)C[C@H](C)N1C [Example 78]', 1.59),
  ('CN1CCN(c2ccc(-c3ccc(OC4CCOCC4)nc3F)cc2NC(=O)c2c[nH]c(=O)cc2C(F)(F)F)CC1 [Example 8]', 0.70),
  ('CN1CCN(c2ccc(-c3cc(CN(C)C4CCCCC4)ccc3F)cc2NC(=O)c2c[nH]c(=O)cc2C(F)(F)F)CC1 [Example 67]', 0.51),
  ('CN1CCN(c2ccc(-c3cc(CN(C)[C@H]4CCOC4)ccc3F)cc2NC(=O)c2c[nH]c(=O)cc2C(F)(F)F)CC1 [Example 76]', 0.74),
  ('CN1CCN(c2ccc(-c3ccc(CNC4CCCCC4)cc3F)cc2NC(=O)c2c[nH]c(=O)cc2C(F)(F)F)CC1 [Example 34]', 1.32),
  ('C[C@@H]1CN(c2ccc(-c3nc(N4CCOCC4)ncc3F)cc2NC(=O)c2c[nH]c(=O)cc2C(F)(F)F)C[C@H](C)N1C [Example 125]', 0.48);

Origin of values: patent US11174250B2
